PROTOCOL DETAILS: Permeability of the compound at pH 7.4 incubated for 4 hrs by PAMPA
Type: ADME
ASSAY SETUP: read-out: permeability
MEASUREMENT LABEL: Papp at 4 h (×10⁻⁶ cm/s)

[P] CN(C[C@H]1Cc2c(cccc2N2C[C@H]3CCN(C)[C@H]3C2)CN1)[C@H]1CCCc2cccnc21
[Q] CN1C[C@@H]2CN(c3cccc4c3C[C@H](CN(C)[C@H]3CCCc5cccnc53)NC4)C[C@@H]2C1
[R] CN1CCN(Nc2cccc3c2CC(CN(C)[C@H]2CCCc4cccnc42)NC3)CC1 (single isomer, unassigned)
[S] CN1CC[C@H]2CN(c3cccc4c3C[C@H](CN(C)[C@H]3CCCc5cccnc53)NC4)C[C@H]21
[T] CN(C)C1CCN(c2cccc3c2C[C@H](CN(C)[C@H]2CCCc4cccnc42)NC3)CC1
Task: Sort by Papp at 4 h with smallest numbers at the start of the list. I'd appreciate it if you listed the labels in the requested order.
Output: Q, S, P, T, R

###

PROTOCOL DETAILS: Cmax in CD-1 mouse at 30 mg/kg, po or at 3 mg/kg, iv by UPLC-MS/MS analysis
Format: ADME, organism-based
Parameters: dose 30 mg/kg
ASSAY SETUP: in vivo
MEASUREMENT LABEL: Cmax (ng/mL)
Give the value, in units of ng/mL, as a plain number.

Task: Specify reported Cmax for the compound shown: CN1CCN(Nc2cccc3c2CC(CN(C)[C@H]2CCCc4cccnc42)NC3)CC1 (single isomer, unassigned)
Output: 791

###

PROTOCOL DETAILS: Half life in CD1 mouse at 30 mg/kg, po or at 3 mg/kg, iv measured after 8 hrs by LC-MS/MS analysis
Format: ADME, organism-based
ASSAY SETUP: in vivo
MEASUREMENT LABEL: half-life (h)
Give the value, in units of h, as a plain number.

Task: Specify reported half-life for the molecule shown: CN1CCN(Nc2cccc3c2CC(CN(C)[C@H]2CCCc4cccnc42)NC3)CC1 (single isomer, unassigned)
Output: 3.5

###

PROTOCOL DETAILS: AUC (0 to t) in CD-1 mouse at 30 mg/kg, po or at 3 mg/kg, iv measured after 8 hrs by LC-MS/MS analysis
Type: ADME, organism-based
Parameters: time 8 hrs, dose 30 mg/kg
ASSAY SETUP: in vivo
MEASUREMENT LABEL: AUC(0-t) at 8 h (ng·h/mL)
Give the value, in units of ng·h/mL, as a plain number.

Task: Specify reported AUC(0-t) at 8 h for the compound shown: CN1CCN(Nc2cccc3c2CC(CN(C)[C@H]2CCCc4cccnc42)NC3)CC1 (single isomer, unassigned)
Output: 4000

###

PROTOCOL DETAILS: Metabolic stability in mouse liver microsomes assessed as parent compound remaining incubated for 10 mins in presence of NADPH
Format: ADME, Microsome
ASSAY SETUP: read-out: Stabilty
MEASUREMENT LABEL: remaining at 10 min (%)

Past entries and their recorded results:
CN(C)C1CCN(c2cccc3c2C[C@H](CN(C)[C@H]2CCCc4cccnc42)NC3)C1 (single isomer, unassigned; 36)
28.2
CN(C[C@H]1Cc2c(cccc2N2C[C@H]3CNC[C@H]3C2)CN1)[C@H]1CCCc2cccnc21
54.7
CN1CCN(Nc2cccc3c2CC(CN(C)[C@H]2CCCc4cccnc42)NC3)CC1 (single isomer, unassigned)
85.8
CN(C)C1CCN(c2cccc3c2C[C@H](CN(C)[C@H]2CCCc4cccnc42)NC3)CC1
70.2
CN(C[C@H]1Cc2c(cccc2N[C@H]2CC[C@H](N)CC2)CN1)[C@H]1CCCc2cccnc21
100

[A] CN1C[C@@H]2CN(c3cccc4c3C[C@H](CN(C)[C@H]3CCCc5cccnc53)NC4)C[C@@H]2C1
[B] CN(C[C@H]1Cc2c(cccc2N2CCC(N)CC2)CN1)[C@H]1CCCc2cccnc21
[C] CN(C[C@H]1Cc2c(cccc2NC2CCNCC2)CN1)[C@H]1CCCc2cccnc21
Task: Please list these compounds in decreasing order of remaining at 10 min. I'd appreciate it if you listed the labels in the requested order.
Output: B, A, C
(B: 70.3%, A: 32.9%, C: 10.9%)

###

PROTOCOL DETAILS: Half life in CD-1 mouse at 30 mg/kg, po or at 3 mg/kg, iv by UPLC-MS/MS analysis
ASSAY SETUP: in vivo
MEASUREMENT LABEL: half-life (h)
Give the value, in units of h, as a plain number.

Task: Specify reported half-life for the compound shown: NCCCCN(Cc1nc2ccccc2[nH]1)[C@H]1CCCc2cccnc21 [MAVORIXAFOR]
Output: 3.1

###

PROTOCOL DETAILS: Metabolic stability in human liver microsomes assessed as parent compound remaining incubated for 10 mins in presence of NADPH
Assay type: ADME, Microsome
ASSAY SETUP: read-out: Stabilty
MEASUREMENT LABEL: remaining at 10 min (%)

CN(C[C@@H]1Cc2c(cccc2NC2CCNCC2)CN1)[C@H]1CCCc2cccnc21
79.9
CN(C[C@H]1Cc2c(cccc2N2C[C@H]3CNC[C@H]3C2)CN1)[C@H]1CCCc2cccnc21
86.7
CN1CCC(N(C)c2cccc3c2C[C@H](CN(C)[C@H]2CCCc4cccnc42)NC3)CC1
88.8
CN1C[C@@H]2CN(c3cccc4c3C[C@H](CN(C)[C@H]3CCCc5cccnc53)NC4)C[C@@H]2C1
100
CN(C[C@H]1Cc2c(cccc2N2C[C@H]3CCN(C)[C@H]3C2)CN1)[C@H]1CCCc2cccnc21
97.6
CN(C)C1CCN(c2cccc3c2C[C@H](CN(C)[C@H]2CCCc4cccnc42)NC3)C1 (single isomer, unassigned; 37)
67.5
CN1CCN(Nc2cccc3c2CC(CN(C)[C@H]2CCCc4cccnc42)NC3)CC1 (single isomer, unassigned)
73.6
CN(C[C@H]1Cc2c(cccc2NC2CCNCC2)CN1)[C@H]1CCCc2cccnc21
75

###

PROTOCOL DETAILS: Metabolic stability in rat liver microsomes assessed as parent compound remaining incubated for 10 mins in presence of NADPH
Assay type: ADME, Microsome
ASSAY SETUP: read-out: Stabilty
MEASUREMENT LABEL: remaining at 10 min (%)

Past entries and their recorded results:
CN(C)C1CCN(c2cccc3c2C[C@H](CN(C)[C@H]2CCCc4cccnc42)NC3)CC1
52.4
CN1C[C@@H]2CN(c3cccc4c3C[C@H](CN(C)[C@H]3CCCc5cccnc53)NC4)C[C@@H]2C1
35.3

[P] CN(C[C@@H]1Cc2c(cccc2NC2CCNCC2)CN1)[C@H]1CCCc2cccnc21
[Q] CN(C[C@H]1Cc2c(cccc2N2CCC(N)CC2)CN1)[C@H]1CCCc2cccnc21
[R] CN(C[C@H]1Cc2c(cccc2N[C@H]2CC[C@H](N)CC2)CN1)[C@H]1CCCc2cccnc21
Task: Provide the items ranked by increasing remaining at 10 min. I'd appreciate it if you listed the labels in the requested order.
Output: P, Q, R

###

PROTOCOL DETAILS: Metabolic stability in rat liver microsomes assessed as parent compound remaining incubated for 10 mins in presence of NADPH
Type: ADME, Microsome
ASSAY SETUP: read-out: Stabilty
MEASUREMENT LABEL: remaining at 10 min (%)

Past entries and their recorded results:
CN(C[C@H]1Cc2c(cccc2N2C[C@H]3CCN(C)[C@H]3C2)CN1)[C@H]1CCCc2cccnc21
11.2
CN(C)C1CCN(c2cccc3c2C[C@H](CN(C)[C@H]2CCCc4cccnc42)NC3)C1 (single isomer, unassigned; 37)
4.55
CN(C)C1CCN(c2cccc3c2C[C@H](CN(C)[C@H]2CCCc4cccnc42)NC3)C1 (single isomer, unassigned; 36)
3.88
CN1CC[C@H]2CN(c3cccc4c3C[C@H](CN(C)[C@H]3CCCc5cccnc53)NC4)C[C@H]21
1.78
CN(C[C@H]1Cc2c(cccc2N2C[C@H]3CNC[C@H]3C2)CN1)[C@H]1CCCc2cccnc21
38.1

[1] CN(C[C@H]1Cc2c(cccc2NC2CCNCC2)CN1)[C@H]1CCCc2cccnc21
[2] CN1CCN(Nc2cccc3c2CC(CN(C)[C@H]2CCCc4cccnc42)NC3)CC1 (single isomer, unassigned)
Task: Sorting ascending by remaining at 10 min, which comes first: 1 or 2 ? Could you answer with the label of the item you picked?
Output: 1

###

TARGET OR SYSTEM: UniProt P10635
Sequence (P10635 whole entry): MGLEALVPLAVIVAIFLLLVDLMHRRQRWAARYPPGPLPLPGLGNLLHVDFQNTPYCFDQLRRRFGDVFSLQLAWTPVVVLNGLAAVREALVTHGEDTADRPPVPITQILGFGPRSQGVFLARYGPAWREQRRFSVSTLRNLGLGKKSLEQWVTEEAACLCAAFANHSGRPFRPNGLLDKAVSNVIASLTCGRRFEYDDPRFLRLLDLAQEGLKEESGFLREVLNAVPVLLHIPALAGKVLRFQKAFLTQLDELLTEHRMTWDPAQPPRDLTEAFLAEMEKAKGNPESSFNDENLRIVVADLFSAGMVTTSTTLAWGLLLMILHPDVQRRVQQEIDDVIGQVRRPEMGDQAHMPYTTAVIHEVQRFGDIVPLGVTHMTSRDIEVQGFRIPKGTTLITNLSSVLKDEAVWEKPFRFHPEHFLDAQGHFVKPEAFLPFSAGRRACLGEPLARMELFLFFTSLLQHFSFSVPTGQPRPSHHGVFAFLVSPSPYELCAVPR
PROTOCOL DETAILS: Inhibition of human recombinant CYP2D6 expressed in insect cells using AMMC as substrate preincubated for 30 mins followed by NADPH regenerating system addition and measured after 45 mins by fluorescence based assay
MEASUREMENT LABEL: IC50 (µM)

CN(C[C@H]1Cc2c(cccc2N2C[C@H]3CCN(C)[C@H]3C2)CN1)[C@H]1CCCc2cccnc21
17.3
CN(C[C@H]1Cc2c(cccc2N2C[C@H]3CNC[C@H]3C2)CN1)[C@H]1CCCc2cccnc21
7.81
CN(C[C@H]1Cc2c(cccc2N2CCC(N)CC2)CN1)[C@H]1CCCc2cccnc21
3.96
CN(C)C1CCN(c2cccc3c2C[C@H](CN(C)[C@H]2CCCc4cccnc42)NC3)C1 (single isomer, unassigned; 37)
15.4

[1] CN(C)C1CCN(c2cccc3c2C[C@H](CN(C)[C@H]2CCCc4cccnc42)NC3)C1 (single isomer, unassigned; 36)
[2] CN1CC[C@H]2CN(c3cccc4c3C[C@H](CN(C)[C@H]3CCCc5cccnc53)NC4)C[C@H]21
Task: Sorting by IC50 in descending order, would 1 or 2 appear first? Could you answer with the label of the item you picked?
Output: 2
